Tested on: PLC/PRF/5 liver cancer cell line
procedure summary: Cell survival, colorimetric MTT assay, PLC/PRF/5
Type: cell-based
condition set: Homo sapiens; PLC-5, 20-100 μM, 72 hours; read-out: 50% reduction in cell survival (IC50)
readout label: IC50

### Prompt If you can, please state the reported IC50 value of CCCCCCCC[C@H](O)CCCCCCC(=O)O [(S)-8-HHA, 8(S)-hydroxypalmitic acid] .
### Response ~50 µM

// data source = patent US10478464B2
